System: SK-MEL-28
ASSAY TEXT: NCI tumour cell line growth inhibition, 48 h
The source made the active and inactive calls. Cut-off read from the data, not from the text of the source: active = GI50 up to about 1.1 µM and inactive = higher.
Outcomes: active, inactive

- COMPOUND: "C/C(=N\\Nc1nc2ccccc2o1)c1cc2ccccc2cn1"
  GROUP: "active"
- COMPOUND: "O=[N+]([O-])c1ccc(/C(Cl)=C/c2ccc(/C=C(\\Cl)c3ccc([N+](=O)[O-])cc3[N+](=O)[O-])cc2)c([N+](=O)[O-])c1"
  GROUP: "inactive"
- COMPOUND: "CCOC(=O)C1(C(=O)OCC)Nc2cccnc2N(C)N1"
  GROUP: "inactive"
- COMPOUND: "C/C(=N\\N)C(CN1CCCCC1)C(c1ccccc1)c1c(O)c2ccccc2oc1=O (stereo not given)"
  GROUP: "inactive"
- COMPOUND: "COc1ccc2c(c1)c(=O)c1c(NCCCN(C)CCCNc3ccc4c(=O)n(CCN(C)C)c(=O)n5c6ccc(OC)cc6c(=O)c3c45)ccc3c(=O)n(CCN(C)C)c(=O)n2c31"
  GROUP: "active"
- COMPOUND: "COC(=O)c1c(O)ccc2c1c1cc3ccccc3c(O)c1n2Cc1ccccc1Cl"
  GROUP: "inactive"
- COMPOUND: "C/C(=C/C(=O)Nn1c(Cc2ccccc2)n[nH]c1=O)C(=O)O"
  GROUP: "inactive"
- COMPOUND: "O=CC1C(=O)Nc2nc3ccccc3n2C1c1ccccc1 (stereo not given)"
  GROUP: "inactive"
- COMPOUND: "Cc1oc2c(C)c3oc(=O)cc(C)c3cc2c1CN"
  GROUP: "inactive"
- COMPOUND: "CC(=O)OC1=CC2=CC[C@H]3[C@@H]4CCC(=O)[C@@]4(C)CC(=O)[C@]3(S)[C@@]2(C)CC1"
  GROUP: "inactive"

====

Test system: SK-MEL-28
ASSAY TEXT: NCI tumour cell line growth inhibition, 48 h
Active and inactive are the calls of the source. No stated cut-off is given here; in the data, active = GI50 up to about 1.1 µM and inactive = higher.
In this section, each of the compounds is paired with its reported GI50.

- COMPOUND: "CN1C(=O)C(C)(C)C2(SC(C)(C)C2(C)C)N(C)C1=S (configuration not stated)"
  GI50: "> 100 µM (inactive)"
- COMPOUND: "COC(=O)C(=O)C(C(=O)C(=O)Nc1cc(C)ccc1C)c1nc2ccc(C(=O)c3ccccc3)cc2nc1O (configuration not stated)"
  GI50: "> 10 µM (inactive)"
- COMPOUND: "Cc1nc(N)sc1C(=O)/C=C/c1ccc([N+](=O)[O-])cc1"
  GI50: "> 100 µM (inactive)"
- COMPOUND: "CCOC(=N)CC(=O)Nc1cccc(Cl)c1"
  GI50: "> 100 µM (inactive)"
- COMPOUND: "N#CC1(Cc2ccccc2[N+](=O)[O-])c2ccccc2C2C(N1C(=O)c1ccccc1)C2(Cl)Cl (configuration not stated)"
  GI50: "> 100 µM (inactive)"
- COMPOUND: "COC(=O)C1=CC2C(=O)OC1CC2C#N (configuration not stated)"
  GI50: "> 100 µM (inactive)"
- COMPOUND: "CC(=O)Nc1c(C(=N)C#N)ncn1CCO"
  GI50: "> 100 µM (inactive)"
- COMPOUND: "NC(CSC(=O)c1ccccc1)C(=O)O (configuration not stated)"
  GI50: "> 100 µM (inactive)"
- COMPOUND: "CN(C)C(=S)/N=C1\\SC(=N\\c2ccccc2)/C(=N/c2ccccc2)N1c1ccc([N+](=O)[O-])cc1"
  GI50: "> 100 µM (inactive)"
- COMPOUND: "Cc1ccc(-n2nnc(C(N)=O)c2O)cc1"
  GI50: "> 100 µM (inactive)"
- COMPOUND: "CCOC(=O)C1C(c2ccc3c(c2)OCO3)c2c(n[nH]c2O)CC1(O)OCC (configuration not stated)"
  GI50: "> 100 µM (inactive)"
- COMPOUND: "CN(C)CCNc1ccc2c(=O)n(CCN(C)C)c(=O)n3c4ccc([N+](=O)[O-])cc4c(=O)c1c23"
  GI50: "1.04 µM (active)"
- COMPOUND: "CCN(CC)CC1CCCCN1CC(=O)N1CC(C)C(=O)Nc2ccccc21 (configuration not stated)"
  GI50: "> 100 µM (inactive)"
- COMPOUND: "CNC(=O)Nc1cc2c3c(c1)CCCN3CCC2"
  GI50: "> 10 µM (inactive)"
- COMPOUND: "CCC1([N+](=O)[O-])CN(N=O)C1"
  GI50: "> 100 µM (inactive)"
- COMPOUND: "CN(C)CCNCc1ccc2c(-c3ccccc3)nc3cc(Cl)c(Cl)cc3n12"
  GI50: "5.78 µM (inactive)"
- COMPOUND: "CCOCC(=O)N(C)c1cccc2c3c(n(C)c12)CCCCC3"
  GI50: "> 100 µM (inactive)"
- COMPOUND: "COC(=O)[C@]12CCC(C)[C@H](C)[C@H]1C1=CCC3[C@@]4(C)CC[C@H](OC(C)=O)C(C)(C)C4CC[C@@]3(C)C1(C)C(O)C2 (some centres not stated)"
  GI50: "> 100 µM (inactive)"
- COMPOUND: "COc1ccc(/C=C/C(=O)c2cc(C(=O)O)c(OC)cc2OC)cc1OC"
  GI50: "> 100 µM (inactive)"
- COMPOUND: "N#CCCN(CCC#N)c1ccc(/C=C2\\N=C(c3cc([N+](=O)[O-])ccc3Cl)N(NC(=O)CC(=O)Nc3ccccc3Cl)C2=O)cc1"
  GI50: "> 100 µM (inactive)"
- COMPOUND: "O=c1[nH]c(=O)n(C2CC(O)C(CO)O2)cc1I (configuration not stated)"
  GI50: "> 100 µM (inactive)"
- COMPOUND: "CN(C)CCNC1=CC(=O)c2nc3ccccc3c3ccnc1c23"
  GI50: "11.4 µM (inactive)"
- COMPOUND: "O=C1CC(NCc2ccccc2)c2c(Cl)sc(Cl)c21 (configuration not stated)"
  GI50: "28.1 µM (inactive)"
- COMPOUND: "O=C1Sc2cc3ccccc3cc2C(=O)Sc2cc3ccccc3cc21"
  GI50: "28.6 µM (inactive)"
- COMPOUND: "COc1ccc(C(O)c2ccccn2)cc1 (configuration not stated)"
  GI50: "> 100 µM (inactive)"
- COMPOUND: "CC1(C)C(=O)N(O)C(C)(C)N1O"
  GI50: "> 10 µM (inactive)"
- COMPOUND: "Cc1cccc(-c2nnc3s/c(=C\\c4ccc5c(c4)OCO5)c(=O)n23)c1"
  GI50: "> 100 µM (inactive)"
- COMPOUND: "COc1ccc(OC)c2c3c([nH]c12)C(=O)Nc1nc(N)nc(N)c1C3"
  GI50: "> 100 µM (inactive)"
- COMPOUND: "C=C(C)[C@H]1C2=CC(C)=C(O2)[C@@H](O)[C@H](C(=C)C)CCC2=C[C@H]1OC2=O [KALLOLIDE A]"
  GI50: "> 100 µM (inactive)"
- COMPOUND: "Nc1c2ccccc2nc2c(C(=O)Nc3ccc(S(N)(=O)=O)cc3)cccc12"
  GI50: "> 100 µM (inactive)"
- COMPOUND: "COc1cccc(NC(=O)CC(=O)N2N=C(C)C(/N=N\\c3ccc(S(=O)(=O)c4ccc(/N=N/C5C(=O)N(C(=O)CC(=O)Nc6cccc(OC)c6)N=C5C)cc4)cc3)C2=O)c1 (configuration not stated)"
  GI50: "> 100 µM (inactive)"
- COMPOUND: "CC1=CC2CC(C)=C(CC[C@]3(C)CC[C@H]([C@@H](C)C(=O)O)OO3)C(C)(C)C2CC1 (some centres not stated)"
  GI50: "1.57 µM (inactive)"
- COMPOUND: "O=C(c1ccccc1)C1C(c2ccccc2[N+](=O)[O-])N1C1CCCCC1 (configuration not stated)"
  GI50: "> 42.3 µM (inactive)"
- COMPOUND: "c1cc2ccc3cc4ncccc4c4ccc(c1)c2c34"
  GI50: "43.1 µM (inactive)"
- COMPOUND: "COc1cc(CCc2ccc(N)cc2)cc(OC)c1OC"
  GI50: "46 µM (inactive)"
- COMPOUND: "CC[C@@]1(OC(=O)C(N)CCC(=O)O)C(=O)OCc2c1cc1n(c2=O)Cc2cc3ccccc3nc2-1 (some centres not stated)"
  GI50: "1.35 µM (inactive)"
- COMPOUND: "COc1cccc(C2CC(C)(O)Oc3cc4c(cc32)OCO4)c1O (configuration not stated)"
  GI50: "35.2 µM (inactive)"
- COMPOUND: "COc1cc(Cl)cc(N(O)C(C)=O)c1OCc1ccccc1"
  GI50: "> 100 µM (inactive)"
- COMPOUND: "[N-]=[N+]=Nc1c(Cl)c(Cl)nc2ccccc12"
  GI50: "> 100 µM (inactive)"
- COMPOUND: "C=CC(C)(C)c1c(OC)oc2ccc(OC)c(C)c2c1=O"
  GI50: "> 100 µM (inactive)"
- COMPOUND: "NC(C(=O)O)C(N)C(=O)O (configuration not stated)"
  GI50: "> 100 µM (inactive)"
- COMPOUND: "O=C1C[C@H]2CCCN2[C@@H](c2ccccc2)C1"
  GI50: "> 100 µM (inactive)"

Every entry's value here was drawn from ChEMBL document CHEMBL1201862.
